# target: Carbonic anhydrase 1 (Homo sapiens, UniProt P00915)
# Sequence (P00915 whole entry): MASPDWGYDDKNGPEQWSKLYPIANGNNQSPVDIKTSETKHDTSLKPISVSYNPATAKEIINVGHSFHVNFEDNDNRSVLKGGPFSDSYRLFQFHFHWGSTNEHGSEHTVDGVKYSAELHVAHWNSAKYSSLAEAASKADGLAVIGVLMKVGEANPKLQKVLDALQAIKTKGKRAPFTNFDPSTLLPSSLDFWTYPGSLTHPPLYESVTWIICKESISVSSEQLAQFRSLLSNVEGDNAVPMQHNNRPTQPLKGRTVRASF
pKi values by entry
Recall that pKi is obtained by taking minus log10 of the concentration measured in molar.

Example entries and their recorded answers appear below.
>>> value_reported("NCCCC(=O)Nc1c(S(N)(=O)=O)cc(S(N)(=O)=O)c(Cl)c1Cl")
6.35
>>> value_reported("NCCCC(=O)NNc1ccc(S(N)(=O)=O)cc1")
4.65
>>> value_reported("NCCCC(=O)OCc1ccc(S(N)(=O)=O)cc1")
5.76

Query pKi for NCCCC(=O)Nc1ccc(S(=O)(=O)Nc2ccc(S(N)(=O)=O)cc2)cc1 7.20

Query pKi for CCN(C(=O)CCCN)C1CC(C)S(=O)(=O)c2sc(S(N)(=O)=O)cc21 (configuration not stated) 7.25

Query pKi for NCCCC(=O)Nc1ccc(S(N)(=O)=O)cc1Br 6.28

Query pKi for NCCCC(=O)NCCC(=O)Nc1nnc(S(N)(=O)=O)s1 7.62
